# assayedSystem: D(1A) dopamine receptor (Homo sapiens, UniProt P21728)
# Sequence (P21728 whole entry): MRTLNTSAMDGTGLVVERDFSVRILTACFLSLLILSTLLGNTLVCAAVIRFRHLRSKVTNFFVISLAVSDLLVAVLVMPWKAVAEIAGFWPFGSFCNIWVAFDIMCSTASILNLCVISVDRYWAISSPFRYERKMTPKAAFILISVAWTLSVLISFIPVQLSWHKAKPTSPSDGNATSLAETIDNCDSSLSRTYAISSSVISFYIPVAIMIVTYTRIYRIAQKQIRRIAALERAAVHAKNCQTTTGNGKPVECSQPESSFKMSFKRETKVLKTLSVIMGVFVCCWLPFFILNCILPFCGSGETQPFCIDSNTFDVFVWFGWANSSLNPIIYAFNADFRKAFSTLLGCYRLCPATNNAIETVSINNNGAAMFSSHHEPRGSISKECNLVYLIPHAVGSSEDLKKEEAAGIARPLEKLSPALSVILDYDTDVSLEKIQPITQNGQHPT
# experiment: Agonist activity at D1R (unknown origin) transfected in human HEK293T cells assessed as increase in cAMP accumulation incubated for 2 hrs by cAMP Glo-sensor assay
pEC50: −log10 of the molar value.

smilesInput: CN1CCc2cccc3c2[C@H]1Cc1ccc2c(c1-3)OCO2
pEC50: 7.00
